System: RT4 (Bladder Carcinoma);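 note: after 72 h of two-drug dosing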
method-notes: Bliss excess, mean over the matrix (fraction); higher = more synergy
Reported Bliss excess values for a set of compounds

compound	target-desc	Bliss excess
CCN(CCO)CCCOc1ccc2c(Nc3cc(CC(=O)Nc4cccc(F)c4)[nH]n3)ncnc2c1 [AZD2811] + O=C(c1cc(Cc2n[nH]c(=O)c3ccccc23)ccc1F)N1CCN(C(=O)C2CC2)CC1 [Olaparib] (first compound max 1 µM, 7x7, partner max 10 µM)	RT4 (Bladder Carcinoma)	0.0243
Cc1cc2ncnn2cc1Nc1ncc2c(n1)n(C1CCOCC1)c(=O)n2C [AZD7648] + C=CCn1c(=O)c2cnc(Nc3ccc(N4CCN(C)CC4)cc3)nc2n1-c1cccc(C(C)(C)O)n1 [AZD1775] (first compound max 10 µM, partner max 1 µM)	RT4 (Bladder Carcinoma)	0.0218
CC1(C)CCC(CN2CCN(c3ccc(C(=O)NS(=O)(=O)c4ccc(NCC5CCOCC5)c([N+](=O)[O-])c4)c(Oc4cnc5[nH]ccc5c4)c3)CC2)=C(c2ccc(Cl)cc2)C1 [Venetoclax] + C1CN(CCC1(C(=O)N[C@@H](CCO)C2=CC=C(C=C2)Cl)N)C3=NC=NC4=C3C=CN4 [Capivasertib] (first compound max 1 µM, 7x7, partner max 3 µM)	RT4 (Bladder Carcinoma)	-0.0469
Cc1nc(Nc2ncc(C(=O)Nc3c(C)cccc3Cl)s2)cc(N2CCN(CCO)CC2)n1 [Dasatinib] + CC(=O)Nc1cccc(-n2c(=O)n(C3CC3)c(=O)c3c(Nc4ccc(I)cc4F)n(C)c(=O)c(C)c32)c1 [Trametinib] (first compound max 2 µM, 7x7, partner max 1 µM)	RT4 (Bladder Carcinoma)	-0.0057
